- Tested on: T1, human IL-33 (R&D Systems, #3625-IL-010/CF) (human, UniProt O95760 112-270)
- T1 sequence (looked up): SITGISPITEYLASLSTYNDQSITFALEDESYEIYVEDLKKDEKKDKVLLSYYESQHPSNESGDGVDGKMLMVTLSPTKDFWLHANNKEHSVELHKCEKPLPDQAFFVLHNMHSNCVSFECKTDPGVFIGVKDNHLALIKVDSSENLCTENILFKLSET
- Experiment: cell-based or functional assay
Observable: IC50, inhibition of 10 pM hIL-33 activation of HEK293/hST2/NFkB-luciferase cells (M)
All answers are understood in M, so give the number only.

>  <Binder>
H4H9664P (antibody, human IgG4, V domains shown, Human IgG4 Fc (H4H)) VH: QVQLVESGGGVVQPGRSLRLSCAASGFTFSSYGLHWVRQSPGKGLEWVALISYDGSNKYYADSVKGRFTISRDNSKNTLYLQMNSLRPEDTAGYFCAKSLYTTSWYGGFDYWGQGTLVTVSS VL: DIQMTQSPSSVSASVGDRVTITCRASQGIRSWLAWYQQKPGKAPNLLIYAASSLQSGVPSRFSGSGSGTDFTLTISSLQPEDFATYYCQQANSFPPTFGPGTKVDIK

>  <Reading>
5e-11

$$$$

Query :: Output measured IC50, inhibition of 10 pM hIL-33 activation of HEK293/hST2/NFkB-luciferase cells for this item: H4H9659P (antibody, human IgG4, V domains shown, Human IgG4 Fc (H4H)) VH: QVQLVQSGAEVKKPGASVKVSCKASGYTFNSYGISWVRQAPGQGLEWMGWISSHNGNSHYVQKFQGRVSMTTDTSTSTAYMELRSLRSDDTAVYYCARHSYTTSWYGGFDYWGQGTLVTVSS VL: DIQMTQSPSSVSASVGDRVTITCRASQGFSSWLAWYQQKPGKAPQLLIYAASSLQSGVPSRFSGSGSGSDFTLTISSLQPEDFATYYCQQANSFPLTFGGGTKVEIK
Result :: 4.7e-11

Query :: Output measured IC50, inhibition of 10 pM hIL-33 activation of HEK293/hST2/NFkB-luciferase cells for this item: H4H9633P (antibody, human IgG4, V domains shown, Human IgG4 Fc (H4H)) VH: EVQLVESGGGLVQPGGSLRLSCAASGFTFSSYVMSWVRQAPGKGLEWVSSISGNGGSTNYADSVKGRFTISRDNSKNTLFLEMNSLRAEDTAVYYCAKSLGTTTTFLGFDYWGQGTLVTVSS VL: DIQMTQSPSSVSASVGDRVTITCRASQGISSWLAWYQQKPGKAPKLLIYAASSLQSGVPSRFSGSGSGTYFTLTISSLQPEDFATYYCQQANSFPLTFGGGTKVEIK
Result :: 2.2e-10

Query :: Output measured IC50, inhibition of 10 pM hIL-33 activation of HEK293/hST2/NFkB-luciferase cells for this item: H4H9675P (antibody, human IgG4, V domains shown, Human IgG4 Fc (H4H)) VH: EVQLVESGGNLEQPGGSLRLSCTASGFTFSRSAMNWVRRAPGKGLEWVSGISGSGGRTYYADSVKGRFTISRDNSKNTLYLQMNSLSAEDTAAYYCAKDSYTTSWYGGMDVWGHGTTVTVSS VL: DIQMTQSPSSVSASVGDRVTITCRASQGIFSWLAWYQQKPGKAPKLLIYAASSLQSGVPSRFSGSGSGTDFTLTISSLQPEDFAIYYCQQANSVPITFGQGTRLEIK
Result :: 7.5e-12

Query :: Output measured IC50, inhibition of 10 pM hIL-33 activation of HEK293/hST2/NFkB-luciferase cells for this item: H4H9629P (antibody, human IgG4, V domains shown, Human IgG4 Fc (H4H)) VH: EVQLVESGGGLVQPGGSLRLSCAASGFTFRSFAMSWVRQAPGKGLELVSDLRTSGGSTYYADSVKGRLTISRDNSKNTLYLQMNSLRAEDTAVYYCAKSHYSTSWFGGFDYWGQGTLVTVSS VL: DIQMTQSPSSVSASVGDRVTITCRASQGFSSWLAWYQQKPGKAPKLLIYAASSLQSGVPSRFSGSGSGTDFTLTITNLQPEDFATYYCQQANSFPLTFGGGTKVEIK
Result :: 1.3e-11

Numbers sourced from patent US20160362487A1.
